B1: library; numbered along this chain (parent)
chain: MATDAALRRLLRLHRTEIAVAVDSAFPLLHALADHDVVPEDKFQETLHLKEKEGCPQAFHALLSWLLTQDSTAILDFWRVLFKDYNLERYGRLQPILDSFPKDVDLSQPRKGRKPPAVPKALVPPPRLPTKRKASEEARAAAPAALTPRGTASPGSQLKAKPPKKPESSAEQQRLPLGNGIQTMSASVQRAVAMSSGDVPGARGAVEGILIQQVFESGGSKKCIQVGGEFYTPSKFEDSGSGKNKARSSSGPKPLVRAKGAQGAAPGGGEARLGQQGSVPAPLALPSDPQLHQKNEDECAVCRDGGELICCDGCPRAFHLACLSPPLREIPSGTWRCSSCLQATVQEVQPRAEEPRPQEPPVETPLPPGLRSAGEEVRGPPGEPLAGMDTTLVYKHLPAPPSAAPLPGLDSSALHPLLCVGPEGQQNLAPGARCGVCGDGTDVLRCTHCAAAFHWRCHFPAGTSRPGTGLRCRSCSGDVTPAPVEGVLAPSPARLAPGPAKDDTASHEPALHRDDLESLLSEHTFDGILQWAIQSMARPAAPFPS

variants of: B1; experiment: AIRE transcriptional activation functional score (insulin promoter-GFP; nonsense median 0, synonymous median 1) (normalised score); higher = higher AIRE activity (more reporter activation); conditions: with insulin promoter-GFP reporter in HEK293
Record True whenever AIRE transcriptional activation functional score is at 0.5 or higher; record False when lower.

Study these solved cases before continuing.
MUTATION DESCRIPTOR: A271G
CAT: True

MUTATION DESCRIPTOR: P252H
CAT: True

MUTATION DESCRIPTOR: P101Y
CAT: False

MUTATION DESCRIPTOR: A399E
CAT: True

MUTATION DESCRIPTOR: P365D
CAT: False

MUTATION DESCRIPTOR: S169V
CAT: True

MUTATION DESCRIPTOR: C446P
CAT: False

MUTATION DESCRIPTOR: C340Y
CAT: True

MUTATION DESCRIPTOR: C314K
CAT: True

MUTATION DESCRIPTOR: E329T
CAT: True

Exam item: Kindly determine if AIRE transcriptional activation functional score recorded for A145D is above or exactly 0.5.
Marked response: True

Exam item: Kindly determine if AIRE transcriptional activation functional score recorded for V22P is above or exactly 0.5.
Marked response: False

Exam item: Kindly determine if AIRE transcriptional activation functional score recorded for G374T is above or exactly 0.5.
Marked response: True

Exam item: Kindly determine if AIRE transcriptional activation functional score recorded for A138E is above or exactly 0.5.
Marked response: True

Exam item: Kindly determine if AIRE transcriptional activation functional score recorded for A138T is above or exactly 0.5.
Marked response: True

Reference source for all entries: the supplement of paper PMC12667976
